B1: library; a variant is named by its letters at N, in order (parent)
chain: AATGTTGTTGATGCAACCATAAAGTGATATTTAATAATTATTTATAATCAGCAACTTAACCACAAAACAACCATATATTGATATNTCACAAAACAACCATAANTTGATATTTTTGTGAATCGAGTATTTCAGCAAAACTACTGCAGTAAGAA

variants of: B1; assay: relative integration efficiency (T-LR orientation) vs wild-type transposon end (log2 (normalized fold change)); transposon end mutated: left end; higher = more efficient transposition; conditions: with VchCAST RNA-guided transposition machinery (E. coli BL21(DE3) host, lacZ target)
Property Name: relative integration efficiency (log2)
Would you mind answering with just the numeric figure?

The cases that follow already have their relative integration efficiency (log2) on record.
Mutation Spec	relative integration efficiency (log2)
CG T79C	-0.488
TG A23G G24T A33T A70C T76A T84A C87A	0.473
CG A15C A69C A95C	-0.511
CG T20A A21T A22T A23T	-0.732
CG G4T	0.222

Quick one: relative integration efficiency (log2) for TA A16C G24T T30A T76A T78A T84A C87A A96C T110A T113A ?
-0.28

Need relative integration efficiency (log2), item TA A70C T76A T86G A102T T111C T113C
-0.561
